Test system: PKAC-beta
Construct: gene PRKACB
Experimental conditions: concentration: 1 μM, replicates: in singlicate; n = 1;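 note: KINOMEscan kinase panel screen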
Assignment: determine reported %Inh for the given compounds.

{"Compound": "Cn1cc(-c2ccc3c(c2)CCN3C(=O)Cc2cc(F)cc(F)c2F)c2c(N)ncnc21 [GSK2634140]", "%Inh": "4%"}

Hello, I would appreciate it if you could give %Inh for each entry below.
1. CC(C)c1nc(-c2ccc(F)c(NS(=O)(=O)c3c(F)cccc3F)c2)c(-c2ccnc(Nc3ccc(N4CCOCC4)nc3)n2)s1 [GSK1804250]
2. CN(c1ccc(F)c(NC(=O)c2cccc(OC(C)(C)C#N)c2Cl)c1)c1ccc2nc(NC(=O)C3CC3)sc2n1
3. Cc1ccc(Nc2ccnc(Nc3ccc(C)c(F)c3)n2)cc1O.Cl [GW582868]

["0%", "0%", "0%"]

---

Assignment: determine reported %Inh for the given compounds.
Test system: SNARK
Construct: gene NUAK2
Experimental conditions: concentration: 1 μM, replicates: in singlicate; n = 1
Answers are plain numbers, in %.

{"Compound": "O=C(Nc1n[nH]c2nc(-c3ccccc3O)ccc12)C1CC1 [SB-711880]", "Scale unit": "%", "Endpoint value": 0}

Hello, I would appreciate it if you could give %Inh for each entry below.
1. CCNc1nccc(-c2c(-c3ccc(F)cc3)ncn2C2CCN(C)CC2)n1
2. CNc1nccc(-c2ccc3c(N)n[nH]c3c2)n1 [GSK2206003]
3. Cn1cc(-c2ccc3c(c2)CCN3C(=O)Cc2cc(F)cc(F)c2F)c2c(N)ncnc21 [GSK2634140]
4. COc1cccc2c(-c3ccncc3)c(-c3ccc(F)cc3)nn12 [GW468513]

0
35
28
9

---

Assignment: determine reported %Inh for the given compounds.
System: NEK9
Experimental conditions: concentration: 1 μM, replicates: in singlicate; n = 1
Give bare numbers, in %.

{"Compound": "CS(=O)(=O)c1cccc(CNc2nc(Nc3ccc4c(c3)CCC(=O)N4)ncc2C(F)(F)F)c1", "Measured quantity": "%Inh", "Scale unit": "%", "Endpoint value": 0}

Hello, I would appreciate it if you could give %Inh for each entry below.
1. Cl.Cl.NC(CNC(=O)c1cc(Br)c(-c2ccnc3[nH]ccc23)s1)c1ccccc1 (stereo not shown) [GSK1322949]
2. Cl.N#CCc1ccc(Nc2nccc(Nc3ccc(Oc4ccccc4)cc3)n2)cc1 [GW639905]
3. Cc1ccc(O)cc1Nc1ccnc2ccc(C(C)(C)C)cc12 [GW856805]
4. Nc1cccc(-c2ccc3c(N)n[nH]c3c2)c1 [GSK2193613]
5. Cc1ccc(C)c(NC(=O)Nc2ccc(C)c(-c3ccc(C(=O)Nc4ccncc4)cc3)c2)c1 [GSK1398473]
6. CN(C)CCNS(=O)(=O)c1ccc(-c2ccnc3[nH]ccc23)cc1 [GSK977620]

1: 23; 2: 0; 3: 10; 4: 8; 5: 7; 6: 0

Hello, I would appreciate it if you could give %Inh for each entry below.
1. COc1cccc2c(-c3ccncc3)c(-c3ccc(F)cc3)nn12 [GW468513]
2. COc1cc(Nc2nccc(N3CCC(NC(=O)Nc4ccc5c(c4)OCO5)C3)n2)cc(OC)c1OC (stereo not shown) [GSK1379766]
3. CCNC(=O)/C=C/c1n[nH]c2cc(Sc3ccccc3C(=O)NC)ccc12
4. COC(=O)Nc1nc2ccc(Oc3ccc(CC(=O)Nc4cc(C(F)(F)F)ccc4F)cc3)cc2[nH]1 [GW680903]
5. N#CC1(c2cccc(C(=O)Nc3cccc(Oc4ccc5nc(NC(=O)C6CC6)sc5n4)c3)c2)CC1
6. CN(C)CCOc1ccc(-c2cc(-c3ccc(Cl)c(O)c3)c(-c3ccncc3)[nH]2)cc1.Cl.Cl [SB-684387]
7. Cc1nn2c(=O)cc(N3CCO[C@H](C)C3)nc2n1Cc1cccc(Cl)c1Cl [GSK2373693]
8. CN(c1ccc(NC(=O)N2CCN(CCCN3CCOCC3)CC2)cc1)c1ccnc(Nc2ccc(CS(C)(=O)=O)cc2)n1.Cl [GW830899]

[0, 21, 0, 45, 0, 17, 0, 0]

---

Assignment: determine reported %Inh for the given molecules.
Test system: DMPK
Experimental conditions: concentration: 1 μM, replicates: in singlicate; n = 1
One number for each entry, in %.

Worked cases, answers included:
{"Molecule": "Cc1cc(-c2c(-c3ccc(F)cc3)ncn2CCCN2CCOCC2)nc(N)n1", "Measured quantity": "%Inh", "Endpoint value": 16}
{"Molecule": "CN1CCN(Cc2ccc(NC(=O)Nc3ccc(N(C)c4ccnc(Nc5ccc(CS(C)(=O)=O)cc5)n4)cc3)cc2)CC1.Cl", "Measured quantity": "%Inh", "Endpoint value": 0}
{"Molecule": "Cc1cccc(Nc2nc(NCCN)ncc2C(N)=O)c1", "Measured quantity": "%Inh", "Endpoint value": 14}
{"Molecule": "O=C(Nc1c(F)cccc1F)c1cc(C(=O)c2ccccc2F)c[nH]1", "Measured quantity": "%Inh", "Endpoint value": 0}
{"Molecule": "Cl.Cl.NC(CNC(=O)c1cc(Br)c(-c2ccnc3[nH]ccc23)s1)c1ccccc1 (stereo not drawn)", "Measured quantity": "%Inh", "Endpoint value": 72}
{"Molecule": "CC(C)c1nc(-c2ccc(F)c(NS(=O)(=O)c3c(F)cccc3F)c2)c(-c2ccnc(Nc3ccc(N4CCOCC4)nc3)n2)s1", "Measured quantity": "%Inh", "Endpoint value": 6}
{"Molecule": "CN(C)c1ncnc2nc[nH]c12", "Measured quantity": "%Inh", "Endpoint value": 2}
{"Molecule": "CSc1ccc(NC2=C(c3ccc(Cl)cc3)C(=O)NC2=O)cc1", "Measured quantity": "%Inh", "Endpoint value": 8}
{"Molecule": "Cc1ccc(NC(=O)c2ccc(Cl)c(Cl)c2)cc1-c1ccc(C(=O)Nc2ccncc2)cc1", "Measured quantity": "%Inh", "Endpoint value": 0}
{"Molecule": "CCn1c(-c2nonc2N)nc2c(-c3ccccc3)ncc(OCCCN)c21.O=C(O)C(F)(F)F.O=C(O)C(F)(F)F", "Measured quantity": "%Inh", "Endpoint value": 0}

Hello, I would appreciate it if you could give %Inh for each entry below.
1. CN(c1ccc(NC(=O)N2CCN(CCCN3CCOCC3)CC2)cc1)c1ccnc(Nc2ccc(CS(C)(=O)=O)cc2)n1.Cl
2. COc1cc(Nc2nccc(N3CCC(NC(=O)Nc4ccc5c(c4)OCO5)C3)n2)cc(OC)c1OC (stereo not drawn)

0
0

---

Tested on: LOK
Construct: gene STK10
Experimental conditions: concentration: 1 μM, replicates: in singlicate; n = 1
Think of 30% as a floor: if %Inh stands on it or above, it is Satisfied; beneath it, Not satisfied.

{"Molecule": "Cc1ccc(C)c(NC(=O)Nc2ccc(C)c(-c3ccc(C(=O)Nc4ccncc4)cc3)c2)c1 [GSK1398473]", "Qualitative label": "Not satisfied"}

Reported %Inh reaches at least 30% for COc1ccc(NC(=O)c2ccoc2)cc1-c1ccc(C(=O)NCC2CC2)cc1 [GW810437] ? Not satisfied

Reported %Inh reaches at least 30% for Cl.N#CCc1ccc(Nc2nccc(Nc3ccc(Oc4ccccc4)cc3)n2)cc1 [GW639905] ? Not satisfied

---

Tested on: PRKR
Construct: gene EIF2AK2
Experimental conditions: concentration: 1 μM, replicates: in singlicate; n = 1
Assignment: determine reported %Inh for the given molecules.
Give bare numbers, in %.

{"Molecule": "COc1ccc(C2=C(Nc3cccc(O)c3)C(=O)NC2=O)cc1", "Subject of test": "PRKR", "%Inh / %": 0}
{"Molecule": "c1ccc(Oc2ccc(Nc3ccnc4cc(-c5ccc(CN6CCCCC6)o5)ccc34)cc2)nc1", "Subject of test": "PRKR", "%Inh / %": 0}
{"Molecule": "O=C1NC(=O)C(c2ccccc2Cl)=C1Nc1cccc(Cl)c1", "Subject of test": "PRKR", "%Inh / %": 0}
{"Molecule": "Cn1cc(-c2cnc(N)c3c(-c4ccc5c(c4)CCN5C(=O)Cc4ccccc4)csc23)cn1", "Subject of test": "PRKR", "%Inh / %": 8}
{"Molecule": "O=C(O)C(F)(F)F.O=c1[nH]ccc2nc(N[C@@H]3CCNC3)nc(Nc3ccc4c(c3)S(=O)(=O)CC4)c12", "Subject of test": "PRKR", "%Inh / %": 91.1}

Hello, I would appreciate it if you could give %Inh for each entry below.
1. Cl.O=C(Nc1ccc(Oc2ccc3[nH]c(NC(=O)c4ccco4)nc3c2)cc1)Nc1cc(C(F)(F)F)ccc1F
2. Cc1cccc(Nc2nc(NCCN)ncc2C(N)=O)c1
3. COc1cc(Nc2nccc(N3CCC(NC(=O)Nc4ccc5c(c4)OCO5)C3)n2)cc(OC)c1OC (centres unmarked)

0
3
0

---

System: CAMK2G
Experimental conditions: concentration: 1 μM, replicates: in singlicate; n = 1
Measured quantity: %Inh (%)
Numbers only, in %.

Hello, I would appreciate it if you could give %Inh for each entry below.
1. COc1cc(Nc2nccc(N3CCC(NC(=O)Nc4ccc5c(c4)OCO5)C3)n2)cc(OC)c1OC (stereo not drawn)
2. CN(C)CCNS(=O)(=O)c1ccc(-c2ccnc3[nH]ccc23)cc1
3. CC(C)(C)c1ccc(C(=O)Nc2cn3cc(-n4ccnc4)ccc3n2)cc1
4. COC(=O)Nc1nc2cc(Oc3ccc(NC(=O)Nc4cccc(SC)c4)cc3)ccc2[nH]1.Cl
5. Nc1cccc(-c2ccc3c(N)n[nH]c3c2)c1

28
5
12
12
26

Hello, I would appreciate it if you could give %Inh for each entry below.
1. Cl.Cl.NCC(NC(=O)c1cc(-c2cccnc2)c(-c2ccnc3[nH]ccc23)s1)c1ccccc1 (stereo not drawn)
2. Cc1ccc(C)c(NC(=O)Nc2ccc(C)c(-c3ccc(C(=O)Nc4ccncc4)cc3)c2)c1
3. Cl.O=C(Nc1ccc(Oc2ccc3[nH]c(NC(=O)c4ccco4)nc3c2)cc1)Nc1cc(C(F)(F)F)ccc1F
4. Cl.Cl.NC(CNC(=O)c1cc(Br)c(-c2ccnc3[nH]ccc23)s1)c1ccccc1 (stereo not drawn)

1. 14
2. 25
3. 0
4. 48

Reference for the values: paper PMC5540273
